Provenance of the data: patent US20120197004A1

assay: in vitro; settings: human, microsomes, pH 7.4
Let's look at some compounds and their measured remaining at 0.5 h, 1 μM.
Give the value, in units of %, as a plain number.

- compound: "CC(C)NCC(O)COc1cccc2ccccc12 (centres unmarked) [Propranolol, propranolol, reference compound]"
  remaining at 0.5 h, 1 μM (%): 86

INPUT: Give reported remaining at 0.5 h, 1 μM value for CC(=O)CC(c1ccccc1)c1c(O)c2ccccc2oc1=O (centres unmarked) [Warfarin, warfarin, reference compound]
OUTPUT: 97

---

assay: in vitro; conditions: mouse, microsomes, pH 7.4
Where a SMILES comes first, the peptide text is derived from it. [ ]: non-standard residue; d: D form. ξ: configuration not given here. ξTic = O=C(O)C1Cc2ccccc2CN1; ξOic = O=C(O)C1CC2CCCCC2N1
result_type: remaining at 1 h, 1 μM (%)
API: value field is a number in %; no unit string.

- compound: "CC(C)NCC(O)COc1cccc2ccccc12 (stereo not shown) [Propranolol, propranolol, reference compound]"
  result_type: "remaining at 1 h, 1 μM"
  value_observed: 4
- compound: "CC(=O)CC(c1ccccc1)c1c(O)c2ccccc2oc1=O (stereo not shown) [Warfarin, warfarin, reference compound]"
  result_type: "remaining at 1 h, 1 μM"
  value_observed: 110

INPUT: Indicate its recorded remaining at 1 h, 1 μM; the compound in question is CC(=O)NCC(=O)N1Cc2ccccc2CC1C(=O)N1C(C(=O)N[C@@H](CCCCN)C(=O)N2Cc3ccccc3CC2C(=O)N2C(C(=O)NCC(=O)N3Cc4ccccc4CC3C(=O)N3C(C(=O)N[C@@H](CCCCN)C(=O)N4Cc5ccccc5CC4C(=O)N[C@@H](CCCCN)C(=O)N[C@@H](CCCCN)C(=O)N[C@@H](CCCCN)C(=O)N[C@@H](CCCCN)C(N)=O)CC4CCCCC43)CC3CCCCC32)CC2CCCCC21 (stereo partly shown) [FKAB-1Ge] (Ac-G[ξTic][ξOic]K[ξTic][ξOic]G[ξTic][ξOic]K[ξTic]KKKK-NH2)
OUTPUT: 11

INPUT: Answer with the recorded remaining at 1 h, 1 μM of CC(=O)N[C@@H](Cc1ccccc1)C(=O)N1Cc2ccccc2CC1C(=O)N1C(C(=O)N[C@@H](CCCCN)C(=O)N2Cc3ccccc3CC2C(=O)N2C(C(=O)N[C@@H](Cc3ccccc3)C(=O)N3Cc4ccccc4CC3C(=O)N3C(C(=O)N[C@@H](CCCCN)C(=O)N4Cc5ccccc5CC4C(=O)N[C@@H](CCCCN)C(=O)N[C@@H](CCCCN)C(=O)N[C@@H](CCCCN)C(=O)N[C@@H](CCCCN)C(N)=O)CC4CCCCC43)CC3CCCCC32)CC2CCCCC21 (stereo partly shown) [FKAB-1Gc] (Ac-F[ξTic][ξOic]K[ξTic][ξOic]F[ξTic][ξOic]K[ξTic]KKKK-NH2) only.
OUTPUT: 7
